Test: Testing the stability of a TCO compound under chemical conditions (HPLC-MS/PDA, GC-MS)
Format: physicochemical
Conditions: A) in acetonitrile with 5 equivalents of pyridine per TCO at 20° C.; for 1 h
MEASUREMENT NAME: Stability of TCO

Task item: Field request: Stability of TCO | item: O=C(OC1/C=C/CCCCC1)c1ccc([N+](=O)[O-])cc1 (stereo not drawn) [drawing 116]
Reply: stable

Task item: Report Stability of TCO for O=C(Oc1ccc([N+](=O)[O-])cc1)OC1/C=C/CCCCC1 (stereo not drawn) please.
Reply: stable

* * *

Experiment: Testing the stability of a TCO compound under chemical conditions (HPLC-MS/PDA, GC-MS)
Type: physicochemical
Conditions: G) in acetonitrile with 5 equivalents of DCC per TCO at 20° C.; for 1 h
MEASUREMENT NAME: Stability of TCO

Task item: Endpoint output: Stability of TCO of O=C(Oc1ccc([N+](=O)[O-])cc1)OC1/C=C/CCCCC1 (stereo not drawn) . Value?
Reply: stable

Task item: # lookup: Stability of TCO of O=C(OC1/C=C/CCCCC1)c1ccc([N+](=O)[O-])cc1 (stereo not drawn) [drawing 116]
Reply: stable

All figures here come from patent US10927139B2.
